Test system: L1210 leukemia ip in BDF1 mice, survival T/C
Experiment: NCI In Vivo Anticancer Drug Screen. Data for tumor model L1210 Leukemia (intraperitoneal) in B6D2F1 (BDF1) mice
Details: endpoint: mean survival time; dose: 150.0 mg/kg/injection; schedule: Q01DX001 (ip); vehicle: carboxymethylcellulose (CMC); higher = longer survival
Description: The antitumor activity of compounds was measured in mice bearing transplantable tumors. Survival or tumor size were measured and the results are expressed as the measurement made in the treated group (T) divided by the measurement made in the vehicle treated control group (C). The tumor model used in this assay is L1210 Leukemia (intraperitoneal) in B6D2F1 (BDF1) mice
Toxic doses and inconclusive results are not listed.
Entries and their T/C values follow.

{"MOLECULE": "CCN(CC)c1ccc(C(=O)OC(C)CNCC(C)CCCC(C)C)cc1 (centres undefined)", "TEST_SYSTEM": "L1210 leukemia ip in BDF1 mice, survival T/C", "T/C": "94 % of control"}
{"MOLECULE": "COc1ccc(/C=C/c2cc[n+](C)cc2)cc1OC", "TEST_SYSTEM": "L1210 leukemia ip in BDF1 mice, survival T/C", "T/C": "109 % of control"}
{"MOLECULE": "O=[N+]([O-])c1ccc2cccnc2c1", "TEST_SYSTEM": "L1210 leukemia ip in BDF1 mice, survival T/C", "T/C": "104 % of control"}
{"MOLECULE": "O=[N+]([O-])C1CC12c1ccccc1-c1ccccc12 (centres undefined)", "TEST_SYSTEM": "L1210 leukemia ip in BDF1 mice, survival T/C", "T/C": "103 % of control"}
